Target: GluA1o-γ8 (GRIA1o-CACNG8 fusion construct) (Homo sapiens (Human), UniProt P42261+Q8WXS5)
Sequence (P42261 other isoform, or with tags, fused parts or gaps): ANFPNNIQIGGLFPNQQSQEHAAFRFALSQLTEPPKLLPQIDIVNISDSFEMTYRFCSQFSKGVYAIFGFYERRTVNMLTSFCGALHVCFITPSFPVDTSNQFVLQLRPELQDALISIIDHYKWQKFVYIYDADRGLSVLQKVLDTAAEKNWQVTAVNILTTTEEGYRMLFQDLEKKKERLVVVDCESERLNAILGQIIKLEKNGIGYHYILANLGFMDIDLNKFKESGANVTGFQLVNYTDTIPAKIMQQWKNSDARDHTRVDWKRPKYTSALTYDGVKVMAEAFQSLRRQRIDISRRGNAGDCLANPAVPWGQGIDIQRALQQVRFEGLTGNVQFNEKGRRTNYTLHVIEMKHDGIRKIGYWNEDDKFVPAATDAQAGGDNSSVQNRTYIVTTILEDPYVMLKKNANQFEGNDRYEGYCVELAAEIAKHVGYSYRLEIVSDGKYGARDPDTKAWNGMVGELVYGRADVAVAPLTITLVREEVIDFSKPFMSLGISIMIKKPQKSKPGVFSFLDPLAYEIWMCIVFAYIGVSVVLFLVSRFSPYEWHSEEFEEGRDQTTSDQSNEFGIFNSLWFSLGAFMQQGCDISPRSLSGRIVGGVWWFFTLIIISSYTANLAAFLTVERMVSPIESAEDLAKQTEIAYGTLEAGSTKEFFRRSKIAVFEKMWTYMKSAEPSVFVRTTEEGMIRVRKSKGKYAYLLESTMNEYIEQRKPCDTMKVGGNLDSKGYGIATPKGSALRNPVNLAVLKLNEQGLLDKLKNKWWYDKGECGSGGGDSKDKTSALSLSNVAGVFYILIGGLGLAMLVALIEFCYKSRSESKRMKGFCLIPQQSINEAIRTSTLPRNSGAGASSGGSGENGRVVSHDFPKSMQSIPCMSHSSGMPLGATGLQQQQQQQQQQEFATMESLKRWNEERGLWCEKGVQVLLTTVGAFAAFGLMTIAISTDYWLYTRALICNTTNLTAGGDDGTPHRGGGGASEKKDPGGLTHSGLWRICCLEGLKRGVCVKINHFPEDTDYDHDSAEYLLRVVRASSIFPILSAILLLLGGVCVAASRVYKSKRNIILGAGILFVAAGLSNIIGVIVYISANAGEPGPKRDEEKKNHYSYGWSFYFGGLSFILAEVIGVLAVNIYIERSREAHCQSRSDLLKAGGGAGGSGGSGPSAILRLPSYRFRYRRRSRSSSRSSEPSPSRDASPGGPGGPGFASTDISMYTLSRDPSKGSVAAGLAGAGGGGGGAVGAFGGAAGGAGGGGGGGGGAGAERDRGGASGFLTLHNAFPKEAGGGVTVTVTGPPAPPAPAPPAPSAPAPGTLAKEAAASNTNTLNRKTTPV
Assay: Calcium flux assay (FLIPR), inhibition of TARP γ8 dependent AMPA receptor activity
Conditions: GluA1o-γ8 (GRIA1o-CACNG8 fusion) in HEK293 cells, calcium flux after 15 μM glutamate
pIC50: −log10 of the molar value.
This section presents compounds with their documented pIC50 values.
Measured parameter: pIC50

>>> numeric_value("CSc1ccc2nc(-c3ccc(F)cc3)n(-c3ccc4[nH]ccc4c3)c2n1")
7.40
>>> numeric_value("Cc1cc(-n2c(C)cc3cccnc32)cc2c1NC(=O)C2")
7.90
>>> numeric_value("CC(C)(F)c1nc2ccc(C(F)(F)F)nc2n1-c1cc(Cl)c2[nH]ncc2c1")
10.20
>>> numeric_value("Cc1cc(N2CCOCC2)c2nc(C3CC3)n(-c3ccc4[nH]c(=O)sc4c3)c2n1")
8.30
>>> numeric_value("FC(F)(F)c1nc2ccc(C3CC3)nc2n1-c1ccc2[nH]ncc2c1")
9.10

---

Target: GluA1o-γ8 (GRIA1o-CACNG8 fusion construct) (Homo sapiens (Human), UniProt P42261+Q8WXS5)
Experiment: Calcium flux assay (FLIPR), inhibition of TARP γ8 dependent AMPA receptor activity
Format: cell-based
Details: GluA1o-γ8 (GRIA1o-CACNG8 fusion) in HEK293 cells, calcium flux after 15 μM glutamate
pIC50: −log10 of the molar value.
Use 9 as the dividing line for pIC50, with the line itself on the y side and lower values as n.

>>> assigned_label("Fc1n[nH]c2ccc(-n3c(C(F)(F)F)nc4ccc(C(F)(F)F)nc43)cc12")
"n"
>>> assigned_label("Cc1nc2ccc(C(F)(F)F)nc2n1-c1cc(Cl)c2[nH]ncc2c1")
"y"
>>> assigned_label("FC(F)(F)c1ccc2nc(-c3ccncc3)n(-c3ccc4[nH]ncc4c3)c2n1")
"n"
>>> assigned_label("COc1nc2ccc(C(F)(F)F)nc2n1-c1ccc2[nH]c(=O)sc2c1")
"n"
>>> assigned_label("O=c1[nH]c2ccc(-n3c(-c4ccc(F)cc4)nc4cccnc43)cc2[nH]1")
"n"
>>> assigned_label("O=c1[nH]c2ccc(-n3c(-c4ccc(F)nc4)nc4cccnc43)cc2s1")
"n"
>>> assigned_label("FC(F)(F)c1ccc2ncn(-c3ccc4[nH]ncc4c3)c2n1")
"n"
>>> assigned_label("O=c1[nH]c2ccc(-n3c(C(F)(F)C(F)(F)F)nc4ccc(C(F)(F)F)nc43)cc2s1")
"y"
>>> assigned_label("CCCc1ccc2nc(C(F)(F)F)n(-c3cc(C)c4[nH]ncc4c3)c2n1")
"y"
>>> assigned_label("O=c1[nH]c2ccc(-n3c(C4CCC4)nc4ccc(C(F)(F)F)nc43)cc2s1")
"y"
>>> assigned_label("O=C1Cc2cc(-n3c(C(F)(F)F)nc4ccc(C(F)F)nc43)ccc2N1")
"n"
>>> assigned_label("CC(C)c1nc2ccc(C(F)(F)F)nc2n1-c1ccc2[nH]nc(Br)c2c1")
"n"
>>> assigned_label("COCc1nc2ccc(C(F)(F)F)nc2n1-c1cc(Cl)c2[nH]ncc2c1")
"y"
>>> assigned_label("FC(F)(F)Cc1nc2ccc(C(F)(F)F)nc2n1-c1ccc2[nH]ncc2c1")
"n"
>>> assigned_label("O=c1[nH]c2ccc(-n3c(C(F)F)nc4ccc(C(F)(F)F)nc43)cc2s1")
"y"
>>> assigned_label("Cc1cc(-n2ccc3ccc(C(F)(F)F)nc32)cc2cn[nH]c12")
"n"
>>> assigned_label("CC(C)c1nc2ccc(C(F)(F)F)nc2n1-c1cnc2[nH]ncc2c1")
"n"
>>> assigned_label("CC(C)(C)c1ccc2nc(-c3ccc(F)cc3)n(-c3ccc4[nH]ncc4c3)c2n1")
"y"
>>> assigned_label("O=C1Cc2cc(-n3c(Cc4cnccn4)nc4ccc(C(F)(F)F)nc43)ccc2N1")
"n"
>>> assigned_label("CC(C)c1ccc2nc(C3CCC3)n(-c3ccc4[nH]ncc4c3)c2n1")
"y"
>>> assigned_label("Cc1cc(-n2c3nc(C(F)(F)F)ccc3nc2[C@H]2C[C@H](F)C2)cc2cn[nH]c12")
"y"
>>> assigned_label("Cc1cc(-n2c(C(C)C)nc3c(N(C)CCF)cc(C(F)(F)F)nc32)cc2cn[nH]c12")
"y"
>>> assigned_label("Fc1ccc(-c2nc3cccnc3n2-c2ccc3[nH]ncc3c2)cc1")
"n"
>>> assigned_label("CC1(c2nc3ccc(C(F)(F)F)nc3n2-c2ccc3c(c2)CC(=O)N3)COC1")
"n"
>>> assigned_label("O=C1Cc2cc(-n3c(C4CC4)c(Br)c4ccc(C(F)(F)F)nc43)ccc2N1")
"y"
>>> assigned_label("O=C1Cc2cc(-n3c(-c4ccc(F)cc4)cc4ccc(Cl)nc43)ccc2N1")
"y"
>>> assigned_label("Cc1cc(-n2c(C(F)(F)F)nc3ccc(C(F)(F)F)nc32)cc2[nH]ncc12")
"n"
>>> assigned_label("O=c1[nH]c2ccc(-n3c(-c4ccc(F)cc4)nc4cccnc43)cc2o1")
"n"
>>> assigned_label("CC(C)c1ccc2nc(-c3ccc(F)cc3)n(-c3ccc4[nH]ncc4c3)c2n1")
"y"

These entries and their values trace back to patent US11312712B2.
